Target: human 4lg B7-H3 (Homo sapiens, UniProt Q5ZPR3)
Sequence (Q5ZPR3 29-534): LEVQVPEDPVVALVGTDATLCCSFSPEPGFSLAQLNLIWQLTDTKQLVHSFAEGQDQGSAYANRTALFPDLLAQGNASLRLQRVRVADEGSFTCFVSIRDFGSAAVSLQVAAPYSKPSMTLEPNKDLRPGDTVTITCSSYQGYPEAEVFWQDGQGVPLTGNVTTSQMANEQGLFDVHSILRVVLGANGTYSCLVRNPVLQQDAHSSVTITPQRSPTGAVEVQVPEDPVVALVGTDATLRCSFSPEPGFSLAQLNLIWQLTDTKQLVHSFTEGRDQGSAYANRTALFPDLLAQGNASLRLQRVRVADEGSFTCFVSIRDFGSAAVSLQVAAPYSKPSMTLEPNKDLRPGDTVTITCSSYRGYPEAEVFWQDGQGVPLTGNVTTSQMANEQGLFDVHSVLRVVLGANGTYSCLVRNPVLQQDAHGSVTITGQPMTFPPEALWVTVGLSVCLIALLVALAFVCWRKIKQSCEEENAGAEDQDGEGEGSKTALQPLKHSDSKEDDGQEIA
Assay: Affinity determination by surface plasmon resonance (SPR) to 4Ig B7-H3
Conditions: SPR KD—25° C., 4Ig B7-H3; 25° C. flow cell temperature
pKd: −log10 of the molar value. Positions of bridges follow the written chain, without caps; N, C: chain ends. Non-standard residues stand in square brackets, D forms with d. Residues, ends and D or L forms follow the SMILES beside them. Nle = CCCC[C@H](N)C(=O)O
MEASUREMENT_KIND: pKd

Please supply the value of reported pKd for the item CCCC[C@H](NC(C)=O)C(=O)N[C@@H](Cc1ccc(O)cc1)C(=O)N[C@H]1CSSC[C@@H](C(=O)N[C@@H](Cc2c[nH]c3ccccc23)C(=O)N[C@@H](Cc2ccccc2)C(=O)N[C@H](C(N)=O)[C@@H](C)O)NC(=O)[C@H](Cc2ccc(O)cc2)NC(=O)[C@H](C(C)C)NC(=O)[C@H](CC(=O)O)NC(=O)[C@H](Cc2ccc(O)cc2)NC(=O)[C@H](CCCCN)NC(=O)CNC(=O)[C@H](C(C)C)NC1=O [compound 32, Ac-Nle-Y-C-V-G-K-Y-D-V-Y-C-W-F-Thr-CONH2] (Ac-[Nle]YCVGKYDVYCWFT-NH2; disulfide 3-11)
8.00 to 9.00
